# Test system: 496974-208-R-J2-PDC complex spheroids, growth % test/control;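 note: spheroids exposed to the drugs for 7 days before readout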
# methodSummary: Anticancer human tumor 496974-208-R-J2-PDC patient-derived pancreatic carcinoma cell line growth inhibition [CLK]
# studyConditions: curve of first compound; second compound 1 µM
endpointName: IC50 (nM)
Field: numeric (nM). Do not append units.

query: Output measured IC50 for this item: CC1(C)CCC(CN2CCN(c3ccc(C(=O)NS(=O)(=O)c4ccc(NCC5CCOCC5)c([N+](=O)[O-])c4)c(Oc4cnc5[nH]ccc5c4)c3)CC2)=C(c2ccc(Cl)cc2)C1 + CNC(=O)c1ccc(Nc2nc(OC3CCCC3)c3c(-c4ccc5nc(C)oc5c4)c[nH]c3n2)c(OC)c1
result: 5670

query: Input Nc1ccccc1NC(=O)c1ccc(CNC(=O)OCc2cccnc2)cc1 + CNC(=O)c1ccc(Nc2nc(OC3CCCC3)c3c(-c4ccc5nc(C)oc5c4)c[nH]c3n2)c(OC)c1 , output reported IC50.
result: 4230

query: Specify measured IC50 for CC(CO)NC(=O)c1cc(-c2ccc(Cl)cc2)nn(-c2cnn(C)c2)c1=O (stereo not given) + CNC(=O)c1ccc(Nc2nc(OC3CCCC3)c3c(-c4ccc5nc(C)oc5c4)c[nH]c3n2)c(OC)c1 .
result: 3290

query: Report IC50, nothing else, for this compound: C=CC(=O)Nc1cc(Nc2nccc(-c3cn(C)c4ccccc34)n2)c(OC)cc1N(C)CCN(C)C + CNC(=O)c1ccc(Nc2nc(OC3CCCC3)c3c(-c4ccc5nc(C)oc5c4)c[nH]c3n2)c(OC)c1
result: 152
